# method.description: Phase 1 study: plasma pharmacokinetics in patients
# Assay type: in vivo, human
# setup.conditions: human, plasma, po, 200 mg, patient plasma after oral (1-g) 200 mg QD, C1D1, n = 12, mean; read-out: AUC0-24 h of (1-h)
property.label: AUC(0-t) (ng·h/mL)
// units = ng·h/mL; emit number, no label

Find the measured AUC(0-t) of O=C1CC[C@@H](N2Cc3cc(N4CCN(CC5CCN(c6ccc([C@@H]7c8ccc(O)cc8OC[C@@H]7c7ccccc7)cc6F)CC5)CC4)ccc3C2=O)C(=O)N1 [compound (1-h)] and report it.
1030

====

# method.description: Phase 1 study: plasma pharmacokinetics in patients
# Type: in vivo, human
# setup.conditions: human, plasma, po, 100 mg, patient plasma, oral (1-g) 100 mg QD, C1D1, n = 3, mean; read-out: Cmax
property.label: Cmax (ng/mL)
// units = ng/mL; emit number, no label

Find the measured Cmax of O=C1CC[C@H](N2Cc3cc(N4CCN(CC5CCN(c6ccc([C@@H]7c8ccc(O)cc8OC[C@@H]7c7ccccc7)cc6F)CC5)CC4)ccc3C2=O)C(=O)N1 and report it.
432

====

# method.description: Phase 1 study: plasma pharmacokinetics in patients
# Format: in vivo, human
# setup.conditions: human, plasma, po, 400 mg, patient plasma after oral (1-g) 400 mg QD, C1D15, n = 5, *median value; read-out: Tmax* of (1-h)
property.label: Tmax (h)
// units = h; emit number, no label

Find the measured Tmax of O=C1CC[C@@H](N2Cc3cc(N4CCN(CC5CCN(c6ccc([C@@H]7c8ccc(O)cc8OC[C@@H]7c7ccccc7)cc6F)CC5)CC4)ccc3C2=O)C(=O)N1 and report it.
4.8

====

# method.description: Phase 1 study: plasma pharmacokinetics in patients
# Format: in vivo, human
# setup.conditions: human, plasma, po, 300 mg, patient plasma after oral (1-g) 300 mg QD, C1D15, n = 10, *median value; read-out: Tmax* of (1-h)
# Text: All patients received compound (1-g) orally. The time of day for administration of compound (1-g) was consistent. Compound (1-g) was taken whole with liquid(s) and with food in the morning. The patient avoided taking other medications at the same time as compound (1-g). […] If vomiting occurred after taking the study treatment, the patient was instructed not to retake the dose and record the dose recorded as taken in the dosing diary, noting that the patient vomited and marking the time of vomiting. […]
property.label: Tmax

Find the measured Tmax of O=C1CC[C@@H](N2Cc3cc(N4CCN(CC5CCN(c6ccc([C@@H]7c8ccc(O)cc8OC[C@@H]7c7ccccc7)cc6F)CC5)CC4)ccc3C2=O)C(=O)N1 and report it.
5.8 h

====

# method.description: Phase 1 study: plasma pharmacokinetics in patients
# Format: in vivo, human
# setup.conditions: human, plasma, po, 100 mg, patient plasma after oral (1-g) 100 mg QD, C1D1, n = 1, mean; read-out: AUC0-24 h of (1-h)
property.label: AUC(0-t) (ng·h/mL)
// units = ng·h/mL; emit number, no label

Find the measured AUC(0-t) of O=C1CC[C@@H](N2Cc3cc(N4CCN(CC5CCN(c6ccc([C@@H]7c8ccc(O)cc8OC[C@@H]7c7ccccc7)cc6F)CC5)CC4)ccc3C2=O)C(=O)N1 and report it.
332

====

# method.description: Phase 1 study: plasma pharmacokinetics in patients
# Type: in vivo, human
# setup.conditions: human, plasma, po, 200 mg, patient plasma after oral (1-g) 200 mg QD, C1D15, n = 12, mean; read-out: AUC0-24 h of (1-h)
property.label: AUC(0-t) (ng·h/mL)
// units = ng·h/mL; emit number, no label

Find the measured AUC(0-t) of O=C1CC[C@@H](N2Cc3cc(N4CCN(CC5CCN(c6ccc([C@@H]7c8ccc(O)cc8OC[C@@H]7c7ccccc7)cc6F)CC5)CC4)ccc3C2=O)C(=O)N1 and report it.
9540

====

# method.description: Phase 1 study: plasma pharmacokinetics in patients
# Type: in vivo, human
# setup.conditions: human, plasma, po, 600 mg, patient plasma, oral (1-g) 600 mg QD, C1D1, n = 4, *median value; read-out: Tmax*
property.label: Tmax
Param answer (str): number followed by unit.

Find the measured Tmax of O=C1CC[C@H](N2Cc3cc(N4CCN(CC5CCN(c6ccc([C@@H]7c8ccc(O)cc8OC[C@@H]7c7ccccc7)cc6F)CC5)CC4)ccc3C2=O)C(=O)N1 and report it.
4.5 h

====

# method.description: Phase 1 study: plasma pharmacokinetics in patients
# Assay type: in vivo, human
# setup.conditions: human, plasma, po, 300 mg, patient plasma, oral (1-g) 300 mg QD, C1D1, n = 10, mean; read-out: Cmax
property.label: Cmax (ng/mL)
// units = ng/mL; emit number, no label

Find the measured Cmax of O=C1CC[C@H](N2Cc3cc(N4CCN(CC5CCN(c6ccc([C@@H]7c8ccc(O)cc8OC[C@@H]7c7ccccc7)cc6F)CC5)CC4)ccc3C2=O)C(=O)N1 and report it.
963

====

# method.description: Phase 1 study: plasma pharmacokinetics in patients
# Type: in vivo, human
# setup.conditions: human, plasma, po, 300 mg, patient plasma, oral (1-g) 300 mg QD, C1D1, n = 10, mean; read-out: AUC0-24 h
property.label: AUC(0-t) (ng·h/mL)
// units = ng·h/mL; emit number, no label

Find the measured AUC(0-t) of O=C1CC[C@H](N2Cc3cc(N4CCN(CC5CCN(c6ccc([C@@H]7c8ccc(O)cc8OC[C@@H]7c7ccccc7)cc6F)CC5)CC4)ccc3C2=O)C(=O)N1 [compound (1-g)] and report it.
16600

====

# method.description: Phase 1 study: plasma pharmacokinetics in patients
# Assay type: in vivo, human
# setup.conditions: human, plasma, po, patients, 100-600 mg QD oral; read-out: Cmax, range
property.label: Cmax

Find the measured Cmax of O=C1CC[C@H](N2Cc3cc(N4CCN(CC5CCN(c6ccc([C@@H]7c8ccc(O)cc8OC[C@@H]7c7ccccc7)cc6F)CC5)CC4)ccc3C2=O)C(=O)N1 and report it.
432 to 2680 ng/mL

====

# method.description: in vivo
# setup.conditions: female, rat, po, plasma AUC
property.label: AUC (ng·h/mL)
// units = ng·h/mL; emit number, no label

Find the measured AUC of O=C1CC[C@H](N2Cc3cc(N4CCN(CC5CCN(c6ccc([C@@H]7c8ccc(O)cc8OC[C@@H]7c7ccccc7)cc6F)CC5)CC4)ccc3C2=O)C(=O)N1 and report it.
2800

====

# method.description: Phase 1 study: plasma pharmacokinetics in patients
# Assay type: in vivo, human
# setup.conditions: human, plasma, po, 600 mg, patient plasma, oral (1-g) 600 mg QD, C1D15, n = 4, mean; read-out: Cmax
property.label: Cmax (ng/mL)
// units = ng/mL; emit number, no label

Find the measured Cmax of O=C1CC[C@H](N2Cc3cc(N4CCN(CC5CCN(c6ccc([C@@H]7c8ccc(O)cc8OC[C@@H]7c7ccccc7)cc6F)CC5)CC4)ccc3C2=O)C(=O)N1 [compound (1-g)] and report it.
2680

====

# method.description: Phase 1 study: plasma pharmacokinetics in patients
# Type: in vivo, human
# setup.conditions: human, plasma, po, 400 mg, patient plasma, oral (1-g) 400 mg QD, C1D1, n = 6, *median value; read-out: Tmax*
property.label: Tmax (h)
// units = h; emit number, no label

Find the measured Tmax of O=C1CC[C@H](N2Cc3cc(N4CCN(CC5CCN(c6ccc([C@@H]7c8ccc(O)cc8OC[C@@H]7c7ccccc7)cc6F)CC5)CC4)ccc3C2=O)C(=O)N1 and report it.
6

====

# method.description: Phase 1 study: plasma pharmacokinetics in patients
# Type: in vivo, human
# setup.conditions: human, plasma, po, 100 mg, patient plasma after oral (1-g) 100 mg QD, C1D15, n = 2, *median value; read-out: Tmax* of (1-h)
property.label: Tmax (h)
// units = h; emit number, no label

Find the measured Tmax of O=C1CC[C@@H](N2Cc3cc(N4CCN(CC5CCN(c6ccc([C@@H]7c8ccc(O)cc8OC[C@@H]7c7ccccc7)cc6F)CC5)CC4)ccc3C2=O)C(=O)N1 and report it.
12

====

# method.description: Phase 1 study: plasma pharmacokinetics in patients
# Assay type: in vivo, human
# setup.conditions: human, plasma, po, 100 mg, patient plasma, oral (1-g) 100 mg QD, C1D15 (steady state), n = 3, mean; read-out: Cmax
property.label: Cmax (ng/mL)
// units = ng/mL; emit number, no label

Find the measured Cmax of O=C1CC[C@H](N2Cc3cc(N4CCN(CC5CCN(c6ccc([C@@H]7c8ccc(O)cc8OC[C@@H]7c7ccccc7)cc6F)CC5)CC4)ccc3C2=O)C(=O)N1 and report it.
1010

====

# method.description: Phase 1 study: plasma pharmacokinetics in patients
# Assay type: in vivo, human
# setup.conditions: human, plasma, po, patients, 100-600 mg QD oral; read-out: mean effective T1/2 at steady state, range
property.label: half-life

Find the measured half-life of O=C1CC[C@H](N2Cc3cc(N4CCN(CC5CCN(c6ccc([C@@H]7c8ccc(O)cc8OC[C@@H]7c7ccccc7)cc6F)CC5)CC4)ccc3C2=O)C(=O)N1 and report it.
20.2 to 48.8 h
